The following compounds are shown together with reported fraction unbound at 5 h, 1 μM values.
- Assay Protocol: Plasma protein binding, equilibrium dialysis, human plasma
- Type: in vitro ADME
- Condition Label: 5 hours at 37° C., read-out: PPB % bound Human (converted)
Recorded Metric: fraction unbound at 5 h, 1 μM

CCn1cc(-c2c(F)cccc2[C@@H]2CN(C(=O)/C=C/CNC)Cc3sc(C#N)c(C)c32)c(C(F)(F)F)n1 [Example 217] :: 0.028
CCn1cc(-c2ccccc2[C@@H]2CN(C(=O)/C=C/CN(C)C)Cc3sc(Cl)cc32)c(C(F)(F)F)n1 [Comp. Ex. 2, reference compound] :: 0.008
CCn1cc(-c2c(F)cccc2[C@@H]2CN(C(=O)/C=C/[C@H](C)NC)Cc3sc(C#N)cc32)c(C(F)(F)F)n1 [Example 89] :: 0.029
CCn1cc(-c2ccccc2[C@@H]2CN(C(=O)/C=C/CNC)Cc3sc(C#N)cc32)c(C(F)(F)F)n1 [Example 12] :: 0.049
C=CC(=O)N1Cc2sc(C#N)c(C)c2[C@H](c2cccc(F)c2-c2cn(CC)nc2C(F)(F)F)C1 [Compound 222] :: 0.008
CCn1cc(-c2c(F)cccc2[C@@H]2CN(C(=O)/C=C/CNC)Cc3sc(C#N)cc32)c(C(F)(F)F)n1 [Example 50] :: 0.033
CCn1cc(-c2c(F)cccc2[C@@H]2CN(C(=O)/C=C/CN(C)C)Cc3sc(C#N)c(C)c32)c(C(F)(F)F)n1 [Example 46] :: 0.028
C=CC(=O)N1Cc2sc(Cl)cc2[C@H](c2ccccc2-c2cn(CC)nc2C(F)(F)F)C1 [Comp. Ex. 1, reference compound] :: 0.002
CCn1cc(-c2c(F)cccc2[C@@H]2CN(C(=O)/C=C/[C@@H]3CCCN3)Cc3sc(C#N)cc32)c(C(F)(F)F)n1 [Example 118] :: 0.032
CCn1cc(-c2c(F)cccc2[C@@H]2CN(C(=O)/C=C/CN(C)C)Cc3sc(C#N)cc32)c(C(F)(F)F)n1 [Example 215] :: 0.04
